METHOD NOTES: growth inhibition, single agents and combos, ICB984, cell-based, cisplatin or BGB combos, synergistic combos for chromothripsis tumors (AID 1671451);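 further: cells exposed for 96 hours before readout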
CONDITION SUMMARY: ICB984 medulloblastoma cells, drug combinations, cisplatin combo, at 0.5 µM, stronger effect = higher value
Label rule met for high-side inhibition (at or above -30%) and rule not met for low-side inhibition (below it).

COMPOUND | QUALITATIVE LABEL
CC(C)OC(=O)[C@H](C)N[P@](=O)(OC[C@H]1O[C@@H](n2ccc(=O)[nH]c2=O)[C@](C)(F)[C@@H]1O)Oc1ccccc1 | rule met
NC(=O)c1nc(F)c[nH]c1=O | rule met
C[C@]12CCCN1CC1=NNC(=O)c3cc(F)cc4[nH]c2c1c34 | rule not met
Nc1nc2n[nH]nc2c(=O)[nH]1 | rule not met
CC(=O)Nc1ccc(C(=O)Nc2ccccc2N)cc1 | rule not met
CN(C)CCN1C(=O)c2cccc3cc(N)cc(c23)C1=O | rule met
CN(C)Cc1c(C(=O)NCCOc2ccc(C(=O)NO)cc2)oc2ccccc12 | rule not met
C=C1[C@H](CO)[C@@H](O)C[C@@H]1n1cnc2c(=O)[nH]c(N)nc21 | rule met
CO[C@H]1/C=C/O[C@@]2(C)Oc3c(C)c(O)c4c(O)c(c(/C=N\N5CCN(C6CCCC6)CC5)c(O)c4c3C2=O)NC(=O)/C(C)=C\C=C\[C@H](C)[C@H](O)[C@@H](C)[C@@H](O)[C@@H](C)[C@H](OC(C)=O)[C@@H]1C | rule met
COc1cc(C=O)c([N+](=O)[O-])cc1OC | rule not met
CCCCc1nc2cc(/C=C/C(=O)NO)ccc2n1CCN(CC)CC | rule not met
NCCOc1cc(C(=O)Nc2cc(OCCN)c3ccccc3n2)nc(C(=O)Nc2cc(OCCN)c3ccccc3n2)c1 | rule met
O=c1cc(N2CCOCC2)oc2c1ccc1ccccc12 | rule met
Nc1ccc(-c2ccc3ncc4ccc(=O)n(-c5cccc(C(F)(F)F)c5)c4c3c2)cn1 | rule met
Cc1cn([C@@H]2O[C@H](CO)[C@@H](O)[C@@H]2F)c(=O)[nH]c1=O | rule not met
O=C(COc1cccc2c(=O)[nH]ccc12)c1ccccc1 | rule met
CN(C)Cc1ccc(-c2nc3cccc4c3n2CCNC4=O)cc1 | rule met
CN(C)c1ccc(C(=O)NCCCCCCC(=O)NO)cc1 | rule met
NC1CCC(N[C@@H]2C[C@H]2c2ccccc2)CC1 (stereo partly specified) | rule not met
c1cc(Nc2cc(C3CC3)[nH]n2)nc(Nc2ccc3nc[nH]c3c2)n1 | rule met
COc1cc2ncnc(-n3nc(-c4ccccn4)nc3N)c2cc1OC | rule not met
